target: YTHDF2 (Homo sapiens (Human)); assay: In vitro FRET assay for binding affinities of YTH inhibitors, YTHDF2; conditions: read-out: Ki (pM) YTHDF2
Sequence (Q9Y5A9 whole entry): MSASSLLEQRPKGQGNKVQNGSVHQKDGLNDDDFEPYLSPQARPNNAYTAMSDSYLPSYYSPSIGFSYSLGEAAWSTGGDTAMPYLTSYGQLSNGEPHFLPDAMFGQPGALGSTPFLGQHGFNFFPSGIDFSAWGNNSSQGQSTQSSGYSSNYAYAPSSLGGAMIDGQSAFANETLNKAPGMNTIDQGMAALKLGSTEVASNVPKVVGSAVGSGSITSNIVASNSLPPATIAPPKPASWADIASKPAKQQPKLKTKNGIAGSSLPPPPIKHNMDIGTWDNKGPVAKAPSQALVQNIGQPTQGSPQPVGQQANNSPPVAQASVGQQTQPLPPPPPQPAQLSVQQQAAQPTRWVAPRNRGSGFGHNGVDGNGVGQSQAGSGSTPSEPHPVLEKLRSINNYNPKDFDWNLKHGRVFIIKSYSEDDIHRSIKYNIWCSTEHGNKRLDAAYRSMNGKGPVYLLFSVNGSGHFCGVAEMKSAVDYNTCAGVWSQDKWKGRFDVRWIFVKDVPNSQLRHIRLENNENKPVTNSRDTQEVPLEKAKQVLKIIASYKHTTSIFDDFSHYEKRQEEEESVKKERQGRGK
For each record, write down the corresponding Ki.
Use pM as the unit, but write only the number.

Ki lookup needed for Fc1cccc(F)c1CNc1ccc(CNC2CC2)cn1 [TR-YTH-09] , thanks.
172

Ki lookup needed for CC(Nc1ccc(CNC2CC2)cn1)c1ccccc1 (stereo not drawn) [TR-YTH-04] , thanks.
100

Ki lookup needed for COc1ccc(CNc2ccc(CNC3CC3)cn2)cc1OC [TR-YTH-03] , thanks.
85

Ki lookup needed for CN(C)Cc1ccc(NCc2ccc(F)cc2)nc1 [TR-YTH-19] , thanks.
107

Ki lookup needed for COc1ccc(CNc2ccc(CN(C)C)cn2)cc1 [TR-YTH-16] , thanks.
179

Ki lookup needed for COc1ccc(CNc2ccc(CNC3CC3)cn2)cc1 [TR-YTH-01] , thanks.
102

Ki lookup needed for c1cncc(CNc2ccc(CNC3CC3)cn2)c1 [TR-YTH-05] , thanks.
70

Ki lookup needed for CN(C)Cc1ccc(NCc2ccc(C(F)(F)F)cc2)nc1 [TR-YTH-20] , thanks.
266

Ki lookup needed for CN(Cc1ccc(C(F)(F)F)cc1)c1ccc(CNC2CC2)cn1 [TR-YTH-10] , thanks.
106

Ki lookup needed for Cc1ccc(Nc2ccc(CNC3CC3)cn2)cc1C [TR-YTH-12] , thanks.
850

Ki lookup needed for COc1ccc(CNc2ccc(CNC3CC3)cn2)c(OC)c1 [TR-YTH-02] , thanks.
182

Ki lookup needed for Fc1ccnc(Nc2ccc(CNC3CC3)cn2)c1 [TR-YTH-15] , thanks.
145

Ki lookup needed for CC(Nc1ccc(CN(C)C)cn1)c1ccccc1 (stereo not drawn) [TR-YTH-18] , thanks.
95

Ki lookup needed for FC(F)(F)c1ccc(CNc2ccc(CNC3CC3)cn2)cc1 [TR-YTH-07] , thanks.
77

Ki lookup needed for Fc1ccc(CNc2ccc(CNC3CC3)cn2)cc1F [TR-YTH-06] , thanks.
395

----------
assay: elogD / log D determination; conditions: Table 800 compounds
Assign class by elogD: not lower than 0.9 means t; lower than 0.9 means f.

Test whether the compound O=S(=O)(Nc1ccc(Cl)c(C(F)(F)F)c1)c1ccc(OC(F)(F)F)cc1 records elogD of 0.9 or higher.
t

Test whether the compound O=S(=O)(Nc1ccccc1N1CCCCC1)c1ccc(OC(F)(F)F)cc1 records elogD of 0.9 or higher.
t

Test whether the compound CC(=O)c1ccc(S(=O)(=O)NCC2CCCOC2)cc1 (stereo not shown) records elogD of 0.9 or higher.
t

Test whether the compound O=S(=O)(Nc1cccs1)c1ccc(OC(F)(F)F)cc1 records elogD of 0.9 or higher.
f

Test whether the compound O=S(=O)(NCC1CCCOC1)c1ccc(OC(F)(F)F)cc1 (stereo not shown) records elogD of 0.9 or higher.
f

Test whether the compound O=S(=O)(Nc1cc(F)ccc1O)c1ccc(OC(F)(F)F)cc1 records elogD of 0.9 or higher.
f

----------
biological target: YTHDF1 (Homo sapiens (Human)); assay: In vitro FRET assay for binding affinities of YTH inhibitors, YTHDF1; conditions: read-out: Ki (pM) YTHDF1
Sequence (Q9BYJ9 whole entry): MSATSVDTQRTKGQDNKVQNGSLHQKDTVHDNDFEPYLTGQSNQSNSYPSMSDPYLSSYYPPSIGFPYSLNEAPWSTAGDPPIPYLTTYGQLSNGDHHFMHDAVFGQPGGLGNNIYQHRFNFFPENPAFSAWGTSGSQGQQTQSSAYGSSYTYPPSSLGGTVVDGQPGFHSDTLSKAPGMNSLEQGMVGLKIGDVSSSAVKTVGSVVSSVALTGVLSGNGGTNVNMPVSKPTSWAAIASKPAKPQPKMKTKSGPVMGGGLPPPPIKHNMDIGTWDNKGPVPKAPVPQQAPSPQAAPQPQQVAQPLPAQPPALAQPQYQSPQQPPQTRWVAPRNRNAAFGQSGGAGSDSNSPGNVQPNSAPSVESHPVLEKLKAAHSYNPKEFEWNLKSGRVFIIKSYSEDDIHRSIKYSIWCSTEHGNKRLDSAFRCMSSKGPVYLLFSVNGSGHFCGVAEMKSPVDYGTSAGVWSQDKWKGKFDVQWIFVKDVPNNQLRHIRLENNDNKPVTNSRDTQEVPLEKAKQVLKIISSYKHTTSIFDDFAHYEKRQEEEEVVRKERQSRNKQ
Ki strictly under 200 pM means 1; at 200 pM or over means 0.

Decide: Ki of CN(Cc1ccc(C(F)(F)F)cc1)c1ccc(CNC2CC2)cn1 [TR-YTH-10] strictly below 200 pM?
0

Decide: Ki of Fc1ccc(CNc2ccc(CNC3CC3)cn2)cc1F [TR-YTH-06] strictly below 200 pM?
0

Decide: Ki of c1cncc(CNc2ccc(CNC3CC3)cn2)c1 [TR-YTH-05] strictly below 200 pM?
1

Decide: Ki of Fc1ccc(CNc2ccc(CNC3CC3)cn2)cc1 [TR-YTH-08] strictly below 200 pM?
0

Decide: Ki of COc1ccc(CNc2ccc(CN(C)C)cn2)cc1 [TR-YTH-16] strictly below 200 pM?
0

Decide: Ki of CC(Nc1ccc(CN(C)C)cn1)c1ccccc1 (stereo not drawn) [TR-YTH-18] strictly below 200 pM?
0

Decide: Ki of Fc1cccc(F)c1CNc1ccc(CNC2CC2)cn1 [TR-YTH-09] strictly below 200 pM?
0

Decide: Ki of COc1ccc(CNc2ccc(CNC3CC3)cn2)cc1OC [TR-YTH-03] strictly below 200 pM?
1

Decide: Ki of CC(Nc1ccc(CNC2CC2)cn1)c1ccccc1 (stereo not drawn) [TR-YTH-04] strictly below 200 pM?
1

Decide: Ki of COc1ccc(CNc2ccc(CNC3CC3)cn2)cc1 [TR-YTH-01] strictly below 200 pM?
1

Decide: Ki of FC(F)(F)c1ccc(CNc2ccc(CNC3CC3)cn2)cc1 [TR-YTH-07] strictly below 200 pM?
1

Decide: Ki of Cc1ccc(Nc2ccc(CNC3CC3)cn2)cc1C [TR-YTH-12] strictly below 200 pM?
0

Decide: Ki of Fc1ccnc(Nc2ccc(CNC3CC3)cn2)c1 [TR-YTH-15] strictly below 200 pM?
0

Decide: Ki of CN(C)Cc1ccc(NCc2ccc(F)cc2)nc1 [TR-YTH-19] strictly below 200 pM?
0

Decide: Ki of COc1ccc(CNc2ccc(CNC3CC3)cn2)c(OC)c1 [TR-YTH-02] strictly below 200 pM?
0

----------
target: FTO (Homo sapiens (Human), UniProt Q9C0B1); test: Fluorescence enzymatic inhibition assay (m6A7-Broccoli RNA / DFHBI-1T) against FTO; type: biochemical; conditions: read-out: Enzymatic IC50 FTO
Sequence (Q9C0B1 whole entry): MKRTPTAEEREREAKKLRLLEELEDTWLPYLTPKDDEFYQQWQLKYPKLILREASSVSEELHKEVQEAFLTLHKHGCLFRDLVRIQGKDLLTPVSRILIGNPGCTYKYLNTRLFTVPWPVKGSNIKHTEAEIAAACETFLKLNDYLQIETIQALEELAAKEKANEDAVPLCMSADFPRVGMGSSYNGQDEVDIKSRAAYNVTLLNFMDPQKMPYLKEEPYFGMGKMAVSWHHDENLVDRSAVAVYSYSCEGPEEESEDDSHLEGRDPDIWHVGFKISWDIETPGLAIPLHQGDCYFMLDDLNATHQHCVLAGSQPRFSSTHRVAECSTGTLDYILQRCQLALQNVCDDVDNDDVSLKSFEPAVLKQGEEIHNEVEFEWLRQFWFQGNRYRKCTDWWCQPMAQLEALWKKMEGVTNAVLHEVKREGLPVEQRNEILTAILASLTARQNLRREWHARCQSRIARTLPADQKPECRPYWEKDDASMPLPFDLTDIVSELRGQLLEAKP
recorded_endpoint: pIC50
When answering, recall that pIC50 equals minus log10 of the concentration in mol/L, and write that number alone.

Value wanted: pIC50 (FTO (Homo sapiens (Human), UniProt Q9C0B1)) of entry COc1ccccc1C(=O)N1CC(Oc2ccccc2)CC1C(=O)Nc1ccc(C(C)=O)cc1 (stereo not shown)
5.08

Value wanted: pIC50 (FTO (Homo sapiens (Human), UniProt Q9C0B1)) of entry COc1ccc(CNC(=O)C2CC(Oc3ccccc3)CN2C(=O)c2ccccc2OC)cc1 (stereo not shown)
5.91

Value wanted: pIC50 (FTO (Homo sapiens (Human), UniProt Q9C0B1)) of entry COc1ccccc1C(=O)N1CC(Oc2ccccc2)CC1C(=O)NCc1ccccn1 (stereo not shown)
4.90

Value wanted: pIC50 (FTO (Homo sapiens (Human), UniProt Q9C0B1)) of entry COc1ccccc1C(=O)N1CC(Oc2ccccc2)CC1C(=O)Nc1ccc(C)c(C)c1 (stereo not shown)
6.72

----------
For each record, write down the corresponding pIC50.
target: ALKBH5 (Homo sapiens (Human), UniProt Q6P6C2); assay: Fluorescence enzymatic inhibition assay (m6A7-Broccoli RNA / DFHBI-1T) against ALKBH5; format: biochemical; details: Table 800 compounds; read-out: ALKBH5 IC50
Sequence (Q6P6C2 whole entry): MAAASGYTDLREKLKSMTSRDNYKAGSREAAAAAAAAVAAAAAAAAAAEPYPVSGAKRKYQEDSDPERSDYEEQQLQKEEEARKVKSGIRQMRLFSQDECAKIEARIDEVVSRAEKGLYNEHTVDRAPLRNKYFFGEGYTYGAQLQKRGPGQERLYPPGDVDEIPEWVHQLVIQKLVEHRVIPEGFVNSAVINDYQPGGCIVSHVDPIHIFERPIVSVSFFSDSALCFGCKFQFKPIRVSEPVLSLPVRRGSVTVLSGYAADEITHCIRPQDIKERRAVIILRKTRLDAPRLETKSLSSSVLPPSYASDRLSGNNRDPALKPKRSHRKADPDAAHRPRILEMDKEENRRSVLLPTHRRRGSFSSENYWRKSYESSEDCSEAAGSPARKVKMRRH
When answering, recall that pIC50 equals minus log10 of the concentration in mol/L, and write that number alone.

pIC50 lookup needed for Cc1ccc(NS(=O)(=O)c2ccc(OC(F)(F)F)cc2)cc1C , thanks.
4.63

pIC50 lookup needed for O=S(=O)(Nc1ccc(F)c(Cl)c1)c1ccc(OC(F)(F)F)cc1 , thanks.
5.72

pIC50 lookup needed for O=S(=O)(Nc1cccs1)c1ccc(OC(F)(F)F)cc1 , thanks.
5.70

pIC50 lookup needed for O=S(=O)(NCc1ccccn1)c1ccc(OC(F)(F)F)cc1 , thanks.
5.66

pIC50 lookup needed for O=S(=O)(NCC1CCCOC1)c1ccccc1 (centres unmarked) , thanks.
6.30

----------
target: FTO (Homo sapiens (Human)); assay: Fluorescence enzymatic inhibition assay (m6A7-Broccoli RNA / DFHBI-1T) against FTO; assay type: biochemical; conditions: m6A7-Broccoli fluorescence assay, 0.250 μM FTO, inhibitor up to 40 μM, triplicate; read-out: Enzymatic IC50 FTO
recorded_endpoint: log10(IC50) (log10 of the value in µM)
Each number you see is log10 of IC50, and the unit inside the log is µM.

log10(IC50) lookup needed for Nc1ncc(-c2cccc(OCc3ccccc3)c2)cn1 , thanks.
1.56

log10(IC50) lookup needed for COCCNc1ncc(-c2ccc(CO)c(OC)c2)cn1 , thanks.
1.24

log10(IC50) lookup needed for COCCNc1ncc(-c2ccc3cc(O)ccc3c2)cn1 , thanks.
1.67

log10(IC50) lookup needed for COCCNc1ncc(-c2ccc3ccc(O)cc3c2)cn1 , thanks.
1.72

log10(IC50) lookup needed for Fc1cccc2c(CNCC3(N4CCCC4)COC3)c[nH]c12 , thanks.
0.34

----------
target: ALKBH5 (Homo sapiens (Human), UniProt Q6P6C2); experiment: Fluorescence enzymatic inhibition assay (m6A7-Broccoli RNA / DFHBI-1T) against ALKBH5; format: biochemical; conditions: m6A7-Broccoli fluorescence assay, 0.250 μM ALKBH5; read-out: Enzymatic IC50 ALKBH5
IC50 strictly under 10 µM means Yes; at 10 µM or over means No.

Decide: IC50 of c1ccc2c(CNCC3(N4CCCC4)COC3)c[nH]c2c1 strictly below 10 µM?
No

Decide: IC50 of c1cc2c(cc1CNCC1(N3CCCC3)COC1)OCCO2 strictly below 10 µM?
Yes

Decide: IC50 of COCCNc1ncc(-c2ccc(CO)c(OC)c2)cn1 strictly below 10 µM?
No

Decide: IC50 of Fc1cccc2c(CNCC3(N4CCCC4)COC3)c[nH]c12 strictly below 10 µM?
Yes

Decide: IC50 of FC(F)(F)Sc1ccc(CNCC2(N3CCCC3)COC2)cc1 strictly below 10 µM?
Yes

Decide: IC50 of COCCNc1ncc(-c2ccc3nc(C)ccc3c2)cn1 strictly below 10 µM?
No

Decide: IC50 of COc1ncc(-c2ccc3nc(N)sc3c2)cn1 strictly below 10 µM?
No

Decide: IC50 of Nc1ncc(-c2cccc(OCc3ccccc3)c2)cn1 strictly below 10 µM?
No

Decide: IC50 of FC1CCN(C2(CNCc3c[nH]c4ccccc34)COC2)C1 (centres unmarked) strictly below 10 µM?
No

Decide: IC50 of c1ccc(-c2ccc(CNCC3(N4CCCC4)COC3)o2)cc1 strictly below 10 µM?
No

Decide: IC50 of Cc1ccc2c(CNCC3(N4CCCC4)COC3)c[nH]c2c1 strictly below 10 µM?
No

Decide: IC50 of Nc1ncc(-c2cccc(Nc3ccccc3)c2)cn1 strictly below 10 µM?
Yes

Decide: IC50 of Oc1ccc2cc(-c3cncnc3)ccc2c1 strictly below 10 µM?
No

Decide: IC50 of COc1ccc2cc(-c3cnc(OC)nc3)ccc2c1 strictly below 10 µM?
No

Decide: IC50 of Nc1ncc(-c2ccc3cc(O)ccc3c2)cn1 strictly below 10 µM?
No

Decide: IC50 of COCCNc1ncc(-c2ccc(OCc3ccccc3)cc2)cn1 strictly below 10 µM?
No

Decide: IC50 of FC1CCN(C2(CNCc3ccc(-c4ccccc4)o3)COC2)C1 (centres unmarked) strictly below 10 µM?
Yes

Decide: IC50 of c1ccc(-c2ccc(CNCC3(N4CCCC4)COC3)s2)cc1 strictly below 10 µM?
Yes

Decide: IC50 of Cc1ccc2[nH]cc(CNCC3(N4CCCC4)COC3)c2c1 strictly below 10 µM?
No
